# Procedure details: yeast display, Sf9 membrane polyspecificity reagent, FACS + sequencing; frameworks hold sequencing errors

Seq | polyreactivity (PSR sort gate)
QVQLVESGGGLVQAGGSHRLSCAASGFTFVNNALGWYRQPPGKEREFVAPISSDGGSTYYADSVKGRFTMSRDNAKNTVYLQMNSLKPEDTAVYYCAKVYPYRTYDTSYYHYHYDSWGQGTQVTVSS | low polyreactivity
QVQLVESGGGLVQAGGSLRLSCAASGSTFYVNAMGWYRQAPGKERELVAAISRRGGSTYYADSVKGRFTISRDNAKNTVYLQMNSLKPEDTAVYYCNVVPVWRPYSLINWQKHFGYWGQGTQVTVSS | high polyreactivity
QVQLVESGGGLVQAGGSLRLSCAASGFTFKFYAMGWYRQAPGKEMEFVAAISGSGGSTYYADSVKRRFTISRDNAKNTVYLQMNSLKPEDTAVYYCAAEVPGKPYRRSRYSFRHDYWGQGTQVTVSS | low polyreactivity
QVQLVESGGGLVQAGGSLRLSCAASGRILWNAMGWYRQAPGKERELVAGITYSGGSTYYADSVKGRFTISRDNAKNTVYLQMNSLKPEDTAVYYCNAGVGARESDYWGQGTQVTVSS | low polyreactivity
QVQLVESGGGLVQAGGSLRLSCAASGSTFRYYTMGWYRQAPGKERELVAAISGSGGITYYADSVKGRFTMSRDNAKNNVYLQMNSLKPEDTAVYYCNAGVFYRDDYWGQGTQVTVSS | high polyreactivity

====

# Procedure details: yeast display, Sf9 membrane polyspecificity reagent, FACS + sequencing; frameworks hold sequencing errors
Result type: polyreactivity (PSR sort gate)

Seq | Result type | Measured result
QVQLVESGGGLVQAGGSLRLSCGASGRTFYRYDMGWYRQAPGKERELVASITSGGNTNYADSVKGRFTISRDNAKNTVYLQMNSLKPEDTAVYYCAKEWYRVQHYRLITEFDYWGQGTQVTVSS | polyreactivity (PSR sort gate) | high polyreactivity
QVQLVESGGGLVQAGGSLRLSCAASGIIFSSYAMGWYRQAPGKERELVAAITRGGSTNYADSVKGRFTISRDNAKNTVYLQMNSLKPEDTAVYYCNALWRAYRNYHYIVKNDYWGEGTQVTVSS | polyreactivity (PSR sort gate) | high polyreactivity
QVQLVDSGGGLVQAGGSLRLSCAASGSTFSDSPMGGYRQAPGKERELVAGITGGGGTYYADSVKGRFTISRDNAKNTVYLQMNSLKPEDTAVYYCAAGYGRRIRYGSEYDYWGQGTQVTVSS | polyreactivity (PSR sort gate) | low polyreactivity
QVQHVETGGGLVQAGCSLRLSCAASGRTFLWNAMGWYRQERGNERELGARINLSGGRTYYADSVKGRFTISRDNAKNSVYLQMNSLKPEETAVYYCAAPVVRYRRDSWGQGTQVTVSS | polyreactivity (PSR sort gate) | low polyreactivity
QVQLEESGGGLVKEGGSLRLSCAASGSIFPINAMGWYRQAPGKERELVAAINGSGSTKYADSVKGRFTISRDNAKNTVYLQMNSLKPEDTAVYYCSTRGLRWAKYGYWGQVTQVTVSS | polyreactivity (PSR sort gate) | high polyreactivity
QVQLVESGGGLVQAGGSLRLSCAASGISFWDYAMGWYRQAPGKERELVAAISSGGSTYYADSVKGRFTISRDNAKNTVYLQMNSLKPEDTAVFYCNAEQRYYRKVKGNYWGQGTQVSVSS | polyreactivity (PSR sort gate) | high polyreactivity
QVQLVESGGGLVQAGGSLRLSCAASGSTFESNTMGWYRQAPGKERELVAASSYSGGRTYYADSVKGRFTISRVNAKNTVYFQMNILKPEDTAVYSCAARWSVSYRMYYWGQGTQVTVSS | polyreactivity (PSR sort gate) | high polyreactivity
QVQLVESGGGLVQAGGSLRLSCAASGRIFTHNAIGWYRQAPGKERELVAGISYGGGSTYYADSVKGRFTISRDNAKITVYLQMNSLKPEDTAVYYCIAYIYDTYYWGQGTQVTVSS | polyreactivity (PSR sort gate) | low polyreactivity
QVQLVESGGGLVQAGGSLRLSCAASVSIFFSYAMGWYRQAPGKERELVASITWSGDTTYYADSVKGRFTISRDNAKNTVYLQMNSLKPEDTAVYYCAAVNRGGYDYWGQGTQVTVSS | polyreactivity (PSR sort gate) | low polyreactivity
QVQLVESGGGLDQAGGSLRLSCAASGSIFRYYVMGWYRQAPGKERELVAAISWSGGTTYYADSVKGRFTISRDNAKNTVYLQMNSLKPEDTAVYYCAAKGPLGYYHATDYHDYWGQGTQVTVSS | polyreactivity (PSR sort gate) | high polyreactivity
QVQLVESGGGLVQAGGSLRLSCAASGGIFSGYAMGWYRQAPGKARELVAAISRRGTRTYYADSVKGRFTISRDNAKNTVDLQKNSLTPEDTAVYYCNAELDSLGTYDYWGQGTQVTVSS | polyreactivity (PSR sort gate) | high polyreactivity
QVHLVESGGGLVQAGGSLRLSFAASGRIFARYALGWYRPAPGKERELVAAITSGGSTHYADSVKGRFTIARENAKNTVYLQMNSLKPEDSAVYYCAAVYRGQRYDYWGQGTQVTVSS | polyreactivity (PSR sort gate) | high polyreactivity
QDQQVESGGGLVQAGGSLRLSCAASGFTFRKKAKGWYRQAPGKERELVAAISASGGSTYYADSVKGRFTISRDNAKNTVYLQMNSLKPEDTDVFYCARDRSNAFNYWGQGTQVTVSS | polyreactivity (PSR sort gate) | high polyreactivity
QVQLVESGGGLVQAGGSLRLSCAASGSIFVVNAMGWYRQAPGKERELVAAIDWSDGGTYYADSVKGRFTISRDNAKNTVYLQMNSLKPEDTAVYYCATVRYVQITRDDYWGQGTQVTVSS | polyreactivity (PSR sort gate) | low polyreactivity
QVQLVESGGRLVQAGGSLRLSCAASGFTFSSYAMGWYRQAPGKERELVAAISTRCGSTYYADSVKGRFTISRDNAKNTVYLQMNSLKPEDTAVYYCATGCRGGRRYEYWGQGTQVTVSS | polyreactivity (PSR sort gate) | low polyreactivity
QVQLVESGGGLVQAGGSLRLSCAASGFILFFNAMGWYRAPWKERELVAGITQSGGSTYYADSVKGRFTISRDNAKNPVYLQMNSLKPEDTAVYYCAAELYDRWSRMDYWGQGTQVTVSS | polyreactivity (PSR sort gate) | low polyreactivity
QVQLVESGGGLVQAGGSLRLSCAASGSTFYVYAMGWYRQAPGKERELVAAITVRGGSTYYADSVKGRFTISRDNAKNTVYLQMNSLKPEDTAVYYCAVDVSKPYYEMDYWGQGTQVTVSS | polyreactivity (PSR sort gate) | high polyreactivity
QVQLVESGGGLVQEGGSLRLSCAASGSTISSYAMGWYRQAPGKERELVAAITSGGSTYYADSVKGRFTFSRDNAKNTVYLQMNSLKPDDTAVYYCDLGSTTMDYWGQGTQVTVSS | polyreactivity (PSR sort gate) | low polyreactivity
QVQLVESGGGLVQAGGSLRLSCAASGSIFHRNTMGWYRQAPGKEREFVAGISWGGGRTYYADSVKGRFTISRDNAKNTVYLQMNSLKPEETAVYYCAAKTGGGGRLSTVYYWGQGTQVTLSS | polyreactivity (PSR sort gate) | high polyreactivity
QVQLEESGGGLVQAGGSLRLSCAASGRSFRKYAMGWYRQAPGKERELVARISWSAGSTYYADSVKGRFKISRDIAMYTVYLQMNSLKPVDTAFYFCIDDGYYRYGNRVLRPGYYCGQGTQVTVSS | polyreactivity (PSR sort gate) | high polyreactivity
QVQLVESGGGLVQAGGSLRLSCAASGITFPLYAMGWYRQAPGKETELVASITRGGTTNYADSVKGRFTISRDNAKNTVYLQMNRLKPEDTAVYYCAAEVTRDRGFDYWGQGTQVTVSS | polyreactivity (PSR sort gate) | low polyreactivity
